Target: Caspase-3 (Homo sapiens)
Sequence (P42574 29-175 limits assumed): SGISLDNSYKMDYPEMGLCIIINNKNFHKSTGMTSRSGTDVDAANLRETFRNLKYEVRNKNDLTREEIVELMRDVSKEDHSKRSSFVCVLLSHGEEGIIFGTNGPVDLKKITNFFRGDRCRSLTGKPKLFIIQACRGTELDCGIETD
Sequence (P42574 176-277 limits assumed): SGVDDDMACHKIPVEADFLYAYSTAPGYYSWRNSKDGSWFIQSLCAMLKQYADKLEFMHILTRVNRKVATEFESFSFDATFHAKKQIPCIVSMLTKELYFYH
Experiment: Inhibition of human recombinant caspase 3 using Ac-DEVD-AMC substrate assessed as accumulation of cleaved fluorogenic product
pIC50: −log10 of the molar value.
Classification field: enter Yes for pIC50 values not below 7, No for values below it.

1. COC[C@@H]1CCCN1S(=O)(=O)c1cc(I)c2c(c1)C(=O)C(=O)N2 :: No
2. COC[C@@H]1CCCN1S(=O)(=O)c1cc(Br)c2c(c1)C(=O)C(=O)N2C :: No
3. COC[C@@H]1CCCN1S(=O)(=O)c1cc(I)c2c(c1)C(=O)C(=O)N2C :: No
4. COC[C@@H]1CCCN1S(=O)(=O)c1cc(Br)c2c(c1)C(=O)C(=O)N2CCCCO :: Yes
5. COC[C@@H]1CCCN1S(=O)(=O)c1cc(Br)c2c(c1)C(=O)C(=O)N2CCCCF :: Yes
6. CCCN1C(=O)C(=O)c2cc(S(=O)(=O)N3CCC[C@H]3COC)cc(Br)c21 :: Yes
7. CCCCN1C(=O)C(=O)c2cc(S(=O)(=O)N3CCC[C@H]3COC)cc(I)c21 :: Yes
8. COC[C@@H]1CCCN1S(=O)(=O)c1cc(Cl)c2c(c1)C(=O)C(=O)N2 :: No
9. COC[C@@H]1CCCN1S(=O)(=O)c1cc(F)c2c(c1)C(=O)C(=O)N2 :: No
10. COC[C@@H]1CCCN1S(=O)(=O)c1cc(I)c2c(c1)C(=O)C(=O)N2CCCF :: Yes

Please turn your attention to the following entry.
Query: Confirm if pIC50 reported for the compound COC[C@@H]1CCCN1S(=O)(=O)c1cc(I)c2c(c1)C(=O)C(=O)N2CCCCO is 7 or above.
Response: Yes
